Assay: NCI Yeast Anticancer Drug Screen. Data for the bub3 strain (AID 167)
Conditions: S. cerevisiae bub3 mutant strain, at 50.0 µM
The panel holds about 79,000 compounds, 15% with a hit somewhere; the sample as a whole holds those more often. Calls of active or inactive are those of the source. No stated cut-off is given here; in the data, active means growth inhibition above about 70%; inactive means the rest.
The reply should name one outcome from true (1) for active, false (0) for inactive

Observe how each entry below is paired with its result.
CNC(=O)Nc1ccc(OC)cc1OC	false (0)
COc1ccc(C(O)C(C)C(O)(C(F)(F)F)C(F)(F)F)cc1 (configuration not stated)	true (1)
[N-]=[N+]=NC1(Cc2ccccc2)C(=O)Nc2ccccc2C1=O (configuration not stated)	false (0)
O=C(O)c1cscc1Cc1ccccc1	false (0)
CCCCC(CC)CN(CC(CC)CCCC)C1C=CCCC1 (configuration not stated)	false (0)

Call for entry `COc1ccc(/C=C2\N=C(c3ccccc3)OC2=O)c(Br)c1OC(C)=O` : false (0)

Call for entry `Cc1ccc2ccccc2[n+]1CC(=O)c1ccc2c(c1)OCO2` : false (0)

Call for entry `Cc1ccccc1CN` : false (0)

Call for entry O=C(NC(c1ccccc1)C(O)c1ccccc1)C(Cl)Cl (configuration not stated) : false (0)

Call for entry NNC(=O)C(O)C(O)C(=O)NN (configuration not stated) : false (0)

Call for entry `COc1ccccc1NC(=O)CC(=O)NN` : false (0)

Call for entry `COc1cc(/C=C/C(C)=O)ccc1OP(=O)(O)O` : false (0)

---

Assay: NCI Yeast Anticancer Drug Screen. Data for the cln2 rad14 strain (AID 165);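 further: 0% = growth equal to vehicle treated cultures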
Settings: S. cerevisiae cln2 rad14 strain, at 50.0 µM, hits give high values
About 79,000 compounds went through this panel and 15% of them were active in at least one assay; those are over-represented in the sample as a whole.
growth inhibition listing for selected molecules.
# value in %; strip the unit string

CN1N=C(c2ccccc2O)/C(=C/c2c(-c3ccccc3O)[nH]n(C)c2=O)C1=O	0.75

Recorded result, `N#CC1(CCCI)CCCC1` , growth inhibition: -7.45

Recorded result, `CCCN(CCC)CC(O)CN(CCC)CCC` , growth inhibition: -36

Recorded result, `CC(C)N(C(=O)c1cccc2ccccc12)C(C)C` , growth inhibition: 4.55

Recorded result, `Cc1ccc(CCCCCOc2ccc(C3=NCCO3)cc2)s1` , growth inhibition: -21

Recorded result, CCOC(=O)C1(C(=O)OCC)CC1c1ccccc1 (centres undefined) , growth inhibition: -0.6

Recorded result, `Nc1nc2nc(C(=O)O)c(=S)[nH]c2c(=O)[nH]1` , growth inhibition: -10.9

Recorded result, `C(=C/c1nnc2ncccn12)/c1ccccc1` , growth inhibition: -15.7

Recorded result, NC(=O)C(O)C(O)CO (centres undefined) , growth inhibition: 7.2

---

Assay: NCI Yeast Anticancer Drug Screen. Data for the mlh1 rad18 strain (AID 175)
Conditions: S. cerevisiae mlh1 rad18 strain growth inhibition; at 50.0 µM; hits give high values
Procedure: Growth inhibition of yeast strains with defined genetic alterations is measured as a screen for potential anti-cancer activity. Selected strains with alterations in DNA damage repair or cell cycle control were exposed to compounds and growth inhibition was measured relative to vehicle treated controls. The strain used in this assay is mlh1 rad18
About 79,000 compounds went through this panel and 15% of them were active in at least one assay; those are over-represented in the sample as a whole.
property name: growth inhibition (%)
# value in %; strip the unit string

Guide cases for growth inhibition, answers given:
CCCCCCCCS(=O)(=O)N(C)C	-15.2
CCCN(CCC)NC(=O)c1ccc(N=NN(C)C)cc1	21
CSc1ccc(NC(=O)Nc2cc(C)ccn2)cc1	10.6

Now consider a different molecule.
Recorded result, Cc1cccc2c1NC(O)c1cccn1C2=O (centres undefined) , growth inhibition: -2.4
